# experimental system: human DGAT1 (Homo sapiens)
pIC50: −log10 of the molar value.
Each entry gets condition not met if its pIC50 stays under 7, and condition met if its pIC50 is 7 or above.

>  <smiles record>
CCOC(=O)[C@H]1CC[C@H](OC2CCN(c3ccc(-c4nc5cc(Cl)ccc5[nH]4)cn3)CC2)CC1

>  <assigned class>
condition met

$$$$
>  <smiles record>
O=C(O)C1(COC2CCN(c3ccc(-c4nc5ccccc5[nH]4)cn3)CC2)CC1

>  <assigned class>
condition not met

$$$$
>  <smiles record>
O=C(NS(=O)(=O)c1ccc(F)cc1)[C@H]1CC[C@H](OC2CCN(c3ccc(-c4nc5cc(F)ccc5[nH]4)cn3)CC2)CC1

>  <assigned class>
condition met

$$$$
>  <smiles record>
O=C(NS(=O)(=O)c1ccc(Cl)cc1)[C@H]1CC[C@H](OC2CCN(c3ccc(-c4nc5cc(F)ccc5[nH]4)cn3)CC2)CC1

>  <assigned class>
condition met

$$$$
>  <smiles record>
CC(C)(COC1CCN(c2ccc(-c3nc4cc(C(F)(F)F)cnc4[nH]3)cn2)CC1)C(=O)O

>  <assigned class>
condition met

$$$$
>  <smiles record>
O=C(O)C[C@H]1CC[C@@H](OC2CCN(c3ccc(-c4nc5ccc(C(F)(F)F)cc5[nH]4)cn3)CC2)CC1

>  <assigned class>
condition met

$$$$

----------
Attribute: pIC50
# experimental system: human DGAT1 (Homo sapiens, UniProt O75907)
# Sequence (O75907 1-488): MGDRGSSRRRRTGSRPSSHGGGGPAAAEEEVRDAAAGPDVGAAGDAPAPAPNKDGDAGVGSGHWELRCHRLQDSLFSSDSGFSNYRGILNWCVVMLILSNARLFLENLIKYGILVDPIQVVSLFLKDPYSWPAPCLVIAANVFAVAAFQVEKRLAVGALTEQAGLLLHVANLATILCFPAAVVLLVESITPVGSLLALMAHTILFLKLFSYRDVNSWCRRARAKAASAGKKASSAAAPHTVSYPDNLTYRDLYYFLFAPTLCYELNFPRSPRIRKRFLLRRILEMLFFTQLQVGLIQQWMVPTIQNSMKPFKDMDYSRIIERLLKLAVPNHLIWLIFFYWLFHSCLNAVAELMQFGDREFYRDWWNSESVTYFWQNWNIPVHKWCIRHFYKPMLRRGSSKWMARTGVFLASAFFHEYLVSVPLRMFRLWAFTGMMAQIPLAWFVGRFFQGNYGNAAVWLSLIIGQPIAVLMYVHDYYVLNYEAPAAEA
pIC50: −log10 of the molar value.
assay readout: pIC50

>  <molecule>
O=C(O)C[C@H]1CC[C@@H](OC2CCN(c3ccc(-c4nc5ccccc5[nH]4)cn3)CC2)CC1

>  <experimental system>
human DGAT1 (Homo sapiens, UniProt O75907)

>  <endpoint value>
7.82

$$$$
>  <molecule>
O=C(O)[C@H]1C[C@@H](OC2CCN(c3ccc(-c4nc5ccc(C(F)(F)F)cc5[nH]4)cn3)CC2)C1

>  <experimental system>
human DGAT1 (Homo sapiens, UniProt O75907)

>  <endpoint value>
8.05

$$$$
>  <molecule>
O=C(O)CC1CC(OC2CCN(c3ccc(-c4nc5ccc(C(F)(F)F)cc5[nH]4)cn3)CC2)C1 (stereo not shown) [Example 51]

>  <experimental system>
human DGAT1 (Homo sapiens, UniProt O75907)

>  <endpoint value>
8.22

$$$$
>  <molecule>
O=C(O)CC1CC(OC2CCN(c3ccc(-c4nc5ccc(C(F)(F)F)cc5[nH]4)cn3)CC2)C1 (stereo not shown) [Example 52]

>  <experimental system>
human DGAT1 (Homo sapiens, UniProt O75907)

>  <endpoint value>
8.00

$$$$
